molecular target: T1, Anti-CD28 Fab (SEQ ID NOs: 696, 697); assay: phage ELISA; biotinylated anti-CD28 Fab on neutravidin plate, clonal phage supernatant, anti-M13 HRP detection;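 also: crude supernatants of single phage clones picked after panning were screened for binding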
T1 construct: In the phage ELISA the Fab was biotinylated and captured on neutravidin coated plates
T1 sequence (VH, as listed by the source, chain 1 of 2): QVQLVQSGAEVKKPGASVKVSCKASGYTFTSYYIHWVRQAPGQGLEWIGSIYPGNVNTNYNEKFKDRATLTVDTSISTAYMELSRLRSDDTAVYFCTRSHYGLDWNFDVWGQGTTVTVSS
T1 sequence (VL, as listed by the source, chain 2 of 2): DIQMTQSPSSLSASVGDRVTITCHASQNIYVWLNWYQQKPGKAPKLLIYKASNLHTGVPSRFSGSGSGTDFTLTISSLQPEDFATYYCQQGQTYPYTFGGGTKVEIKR
Would you kindly list Anti-CD28 Fab signal (phage binding ELISA) for each of these binders?
Give bare numbers.

# binder, result_value
data = [
    ("YCDGHASEYMWKCL (tested as crude clonal phage supernatant) [Phage-736]", 1.94),
    ("YCDGHMPEYMEKCL (tested as crude clonal phage supernatant) [Phage-742]", 1.93),
    ("YCMGHAPEYMEKCL (tested as crude clonal phage supernatant) [Phage-740]", 1.93),
    ("YCSGHAPEYMAKCL (tested as crude clonal phage supernatant) [Phage-737]", 1.94),
    ("YCAGHSPEFMEKCL (tested as crude clonal phage supernatant) [Phage-747]", 1.91),
    ("YCDGHLNEYMEKCL (tested as crude clonal phage supernatant) [Phage-748]", 1.91),
    ("YCEGHRAEYMEKCL (tested as crude clonal phage supernatant) [Phage-738]", 1.93),
]

Now consider a different binder.
So, YCMGHQPEYMQKCL (tested as crude clonal phage supernatant) [Phage-741] ? Its Anti-CD28 Fab signal (phage binding ELISA) was 1.93
